# testDetails: apparent partition coefficient n-octanol / phosphate buffer pH 7,4 (method of Hansch et al.)
# Assay type: physicochemical
# conditionInfo: n-octanol / aqueous phosphate buffer pH 7,4
Param threshold (20) applies to Scheinbarer Verteilungskoeffizient zwischen n-Octanol und Phosphatpuffer pH 7,4; output class 1 when value >= threshold, class 0 when value < threshold.

{"columns": ["molecule", "class"],
 "data": [
  ["CC(C)C(=O)Nc1ccn([C@H]2CC[C@@H](CO)O2)c(=O)n1", "class 0"]
]}

Q: Check if Scheinbarer Verteilungskoeffizient zwischen n-Octanol und Phosphatpuffer pH 7,4 >= 20 (inclusive). Item: "CCCC(=O)Nc1ccn([C@H]2CC[C@@H](CO)O2)c(=O)n1"
Ans: class 0

Q: Check if Scheinbarer Verteilungskoeffizient zwischen n-Octanol und Phosphatpuffer pH 7,4 >= 20 (inclusive). Item: "CCCCCCCCCCCCCCCC(=O)Nc1ccn([C@H]2CC[C@@H](COC(=O)CCCCCCCCCCCCCCC)O2)c(=O)n1"
Ans: class 1
